# experimental.target: Transporter, Choline (Homo sapiens)
# Sequence (Q9GZV3 1-580): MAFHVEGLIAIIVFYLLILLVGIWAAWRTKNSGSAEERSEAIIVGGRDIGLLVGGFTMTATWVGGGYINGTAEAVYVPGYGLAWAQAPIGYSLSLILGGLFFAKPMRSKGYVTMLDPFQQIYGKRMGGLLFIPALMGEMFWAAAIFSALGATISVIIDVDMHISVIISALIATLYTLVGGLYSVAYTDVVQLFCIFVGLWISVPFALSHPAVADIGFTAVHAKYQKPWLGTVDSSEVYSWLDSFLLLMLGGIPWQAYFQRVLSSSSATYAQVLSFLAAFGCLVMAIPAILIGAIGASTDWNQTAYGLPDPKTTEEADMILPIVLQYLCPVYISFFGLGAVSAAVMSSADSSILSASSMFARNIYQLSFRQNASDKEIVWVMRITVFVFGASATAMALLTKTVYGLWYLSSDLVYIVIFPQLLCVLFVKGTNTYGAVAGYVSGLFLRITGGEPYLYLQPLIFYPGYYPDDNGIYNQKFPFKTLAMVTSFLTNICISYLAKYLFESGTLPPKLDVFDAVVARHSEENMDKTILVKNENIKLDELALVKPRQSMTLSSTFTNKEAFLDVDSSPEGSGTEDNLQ
readout.type: Ki (µM)
Enter your answer as a number in µM; do not include the unit.

Qu. // fetch Ki given entry O=S(=O)(Nc1nccs1)c1cc(Cl)c(NCCCCNC[C@H]2CCCN2)cc1F [SSCI-1]
Ans. 3.19

Values compiled from paper PMC9578445.
